Field: viability decrease (inhibition). Provide a value for each of the compounds that follow.
- Protocol details: NPC library primary testing for decreased DLD-1 cell viability via CellTiter-Glo (AID 1117346)
- Measurement parameters: DLD-1 viability, CellTiter-Glo luminescence; at 20 µM (top of the series)
Numbers only, in %.

Worked examples follow.
- Compound: "COc1ccc(C(=O)NCc2ccc(OCCN(C)C)cc2)cc1OC"
  Unit: "%"
  viability decrease (inhibition): -7.9
- Compound: "O=C(O)c1cn(-c2ccc(F)cc2)c2cc(N3CCNCC3)c(F)cc2c1=O"
  Unit: "%"
  viability decrease (inhibition): -10.5
- Compound: "CC(=O)OC(C)C[N+](C)(C)C (stereo not given)"
  Unit: "%"
  viability decrease (inhibition): -8.2
- Compound: "CC(C)(Sc1cc(C(C)(C)C)c(O)c(C(C)(C)C)c1)Sc1cc(C(C)(C)C)c(O)c(C(C)(C)C)c1"
  Unit: "%"
  viability decrease (inhibition): 37.1

Field: next compound
The compound listed as "Cn1c(NCCN(CCO)CCCc2ccc([N+](=O)[O-])cc2)cc(=O)n(C)c1=O" shows viability decrease (inhibition) equal to 14.1

* * *

- Protocol details: EMT-state selective cytotoxicity in co-culture – imaging, PC-3E GFP, TEM4-18 mCherry, primary screen (AID 1345086);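 also: cells exposed to compound for 72 h before imaging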;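 as to red/green cell ratio (normalised): normalised mesenchymal count divided by normalised epithelial count so high means epithelial killing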
- Measurement parameters: PC-3E GFP / TEM4-18 mCherry co-culture, imaging cell counts; at 1 µM; actives lie on both sides; counts scaled to control wells, 1 = unselective
Field 'label' (enum: YES / NO). Set to YES when red/green cell ratio (normalised) is strictly under 1; else NO.

- Compound: "Nc1ccn([C@H]2CC[C@@H](CO)O2)c(=O)n1"
  Label class: "YES"
- Compound: "CCCc1ncc(C[n+]2ccccc2C)c(N)n1"
  Label class: "YES"
- Compound: "CCC(=O)O[C@H]1[C@H](O[C@@H]2[C@@H](C)[C@H](O[C@H]3C[C@@](C)(OC)[C@@H](O)[C@H](C)O3)[C@@H](C)C(=O)O[C@H](CC)[C@@](C)(O)[C@H](O)[C@@H](C)C(=O)[C@H](C)C[C@@]2(C)O)O[C@H](C)C[C@@H]1N(C)C"
  Label class: "NO"
- Compound: "Cc1scc2c1N(C(=O)CN1CCN(C)CC1)c1ccccc1NC2=O"
  Label class: "NO"

Ask: Does CCN(CC)CCOC(=O)C(Cc1cccc2ccccc12)CC1CCCO1 (stereo not given) have red/green cell ratio (normalised) strictly under 1?
Reply: NO

* * *

- Protocol details: EMT-state selective cytotoxicity in co-culture – imaging, PC-3E GFP, TEM4-18 mCherry, primary screen (AID 1345086);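 also: cells exposed to compound for 72 h before imaging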
- Measurement parameters: PC-3E GFP / TEM4-18 mCherry co-culture, imaging cell counts; measured here: epithelial PC-3E GFP cell survival; at 1 µM
Measured quantity: normalised cell number
One number for each entry.

- Molecule: "Nc1nc2c(ncn2CCC(CO)CO)c(=O)[nH]1"
  normalised cell number: 0.96

For each entry beneath this line, provide reported normalised cell number.
1. CC(=O)Oc1ccccc1C(=O)Nc1ncc([N+](=O)[O-])s1
2. N[C@@H](Cc1ccc(O)c(O)c1)C(=O)O
3. O=C1c2cccc(O)c2C(=O)c2c(O)cccc21
4. CCOC(=O)NNc1nncc2ccccc12

Reply:
1. 1.31
2. 1.01
3. 1.22
4. 0.94

Hey, quick one: what's normalised cell number for each of these?
1. CCN(CCCc1ccccc1)CCCc1ccccc1
2. C[n+]1ccccc1/C=N/O
3. CN(Cc1cc(Br)cc(Br)c1N)C1CCCCC1
4. O=C(O)c1ccccc1Nc1cccc(C(F)(F)F)c1

Reply:
[1.13, 1.37, 0.99, 1.18]

* * *

For each entry below, report its parasite load remaining value.
- Protocol details: P. berghei load reduction in hepatocytes – cell-based, HepG2, luciferase luminescence, HepG2 viability, primary screen (AID 624349);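 also: 100% = mean of DMSO negative control wells on the same plate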
- Measurement parameters: P. berghei liver stage in HepG2, luciferase luminescence, concentration not given here; stronger effect = lower value
Numbers only, in %.

- Compound: "Cc1nc2ccc(CN(C)c3ccc(C(=O)N[C@@H](CCC(=O)O)C(=O)O)s3)cc2c(=O)[nH]1"
  Unit: "%"
  parasite load remaining: 12.1

# batch size: 4; output parasite load remaining per entry
1. CCCN1CCCC[C@H]1C(=O)Nc1c(C)cccc1C
2. CCC(=O)c1c(O)cc(O)cc1O
3. O=c1[nH]c(=O)n([C@H]2C[C@H](O)[C@@H](CO)O2)cc1F
4. CCCc1c(OCCCCc2nn[nH]n2)ccc(C(C)=O)c1O

Reply:
1. 68.8
2. 100
3. 13.4
4. 103

# batch: return parasite load remaining for each of the 6 compounds below
1. CC1CCN(CCCC(=O)c2ccc(F)cc2)CC1
2. CC1CC(OC(=O)C(O)c2ccccc2)CC(C)(C)N1C (centres undefined)
3. Cc1ccc(C(=O)C(C)CN2CCCCC2)cc1 (centres undefined)
4. CC(Cc1ccccc1)(NC(=O)CN)c1ccccc1 (centres undefined)
5. Nc1c2c(nc3c1CCC3)CCCC2
6. CC(N)C(=O)OC(C)(C)Cc1ccc(Cl)cc1 (centres undefined)

Reply:
55.3
101
97.6
118
74.2
159

Please state, for each entry, its recorded parasite load remaining.
1. Cc1cnc(C(=O)O)c[n+]1[O-]
2. CC(C)(C)CC(C)(C)c1ccc(O)c(Cc2ccc(Cl)cc2Cl)c1
3. Cc1ccnc2c1NC(=O)c1cccnc1N2C1CC1

Reply:
[22.9, 157, 79.8]

* * *

- Protocol details: blockers of biotin-polyQ monomer incorporation into aggregates – biochemical, solid-phase synthetic aggregates, QA3 (AID 1585)
- Measurement parameters: polyQ aggregate elongation; measured here: elongation inhibition potency
Records with an inconclusive call do not appear.
Measured quantity: pEC50
Give bare numbers, as −log10 of the molar value.

- Compound smiles: "C=C1c2cccc(O)c2C(O)=C2C(=O)[C@]3(O)C(O)=C(C(N)=O)C(=O)[C@@H](N(C)C)[C@@H]3[C@@H](O)[C@H]12"
  pEC50: 3.88

# return pEC50 for each item in the list
1. CCN(CC)CCNc1ccc(CO)c2sc3ccccc3c(=O)c12
2. C=Cc1c(C)c2cc3[nH]c(cc4nc(cc5nc(cc1[nH]2)C(C)=C5CCC(=O)O)C(CCC(=O)O)=C4C)c(C)c3C=C

Reply:
1: 4.15; 2: 3.97

* * *

Record form. Attribute: GLP1 secretion stimulation. Fill in for each entry.
- Protocol details: GLP1 release stimulators, primary, NCI-H716, NPC library (AID 1117341)
- Measurement parameters: NCI-H716 cells, at 10 µM, stronger effect = higher value
Numbers only, in %.

For each listed entry, give its GLP1 secretion stimulation.
1. CC(=O)O[C@]1(C(C)=O)CC[C@H]2[C@@H]3C=C(Cl)C4=CC(=O)CC[C@]4(C)[C@H]3CC[C@@]21C
2. CCN1CCCC1CNC(=O)c1cc(S(=O)(=O)CC)c(N)cc1OC (stereo unspecified)
3. Clc1ccc2nsnc2c1NC1=NCCN1
4. Cc1ccccc1N1C(=O)c2cc(S(N)(=O)=O)c(Cl)cc2NC1C (stereo unspecified)

Reply:
1. 1.3
2. -4.7
3. 2.7
4. -1.9

Fill in GLP1 secretion stimulation for each of the 2 compounds listed.
1. Nc1c2c(nc3c1CCC3)CCCC2
2. COC(=O)CCc1ccc(OCC(O)CNC(C)C)cc1 (stereo unspecified)

Reply:
1: 4.4; 2: -0.5

* * *

- Protocol details: NPC library primary testing for decreased DLD-1 cell viability via CellTiter-Glo (AID 1117346)
- Measurement parameters: DLD-1 viability, CellTiter-Glo luminescence; at 20 µM (top of the series)
Measured quantity: viability decrease (inhibition) (%)
Give bare numbers, in %.

- Molecule: "CC(C)(C#N)c1cc(Cn2cncn2)cc(C(C)(C)C#N)c1"
  viability decrease (inhibition) (%): 0.55
- Molecule: "COC(=O)C1=C(C)NC(C)=C(C(=O)OCC(C)C)C1c1ccccc1[N+](=O)[O-] (stereo unspecified)"
  viability decrease (inhibition) (%): 86.2
- Molecule: "CC(=O)NS(=O)(=O)c1ccc(N)cc1"
  viability decrease (inhibition) (%): -1.3

For each listed entry, give its viability decrease (inhibition).
1. COc1ccc(CCN2CCC(Nc3nc4ccccc4n3Cc3ccc(F)cc3)CC2)cc1
2. CCOC(=O)[C@H](CCc1ccccc1)N[C@@H](C)C(=O)N1CCC[C@H]1C(=O)O
3. CCCN(CCC)C(=O)C(CCC(=O)O)NC(=O)c1ccccc1 (stereo unspecified)
4. Cc1cc(CC(=O)O)n(C)c1C(=O)c1ccc(Cl)cc1
5. C#CCN(C)Cc1ccccc1
6. C#C[C@]1(O)CC[C@H]2[C@@H]3CCc4cc(O)ccc4[C@H]3CC[C@@]21C

Reply:
100
3.4
-14.6
-17.6
2.6
62.5

# batch size: 2; output viability decrease (inhibition) per entry
1. CCC(=O)c1c(O)cc(O)cc1O
2. CN(C)CCOC(=O)COc1ccc(Cl)cc1

Reply:
1: 2.4; 2: -7.4

These data points were gathered from PubChem BioAssay.
